- ASSAY_METHOD_TEXT: In vivo pharmacokinetics and brain penetration
- PARTICULARS: male, C57BL/6NCrl, mouse, in vivo, iv, 10 mg, t½, mice; 10 mg∙kg^−1
Record form. Attribute: half-life. Fill in for each entry.
Numbers only, in h.

* Fc1ccc2c(/C=C/c3nnn[nH]3)c[nH]c2c1 [LM10, reference compound] | 1.77

Now turn to the next compound.
Ask: Note down half-life recorded for C[C@@H](CO)NC(=O)c1ccc(-c2c[nH]c3cc(F)ccc23)cc1 [NTRC 3531‐0]
Result: 0.903

* * *

- ASSAY_METHOD_TEXT: In vivo pharmacokinetics and brain penetration
- PARTICULARS: male, C57BL/6NCrl, mouse, in vivo, po, 50 mg, Cmax, mice; single p.o.; 50 mg∙kg^−1; plasma
MEASURED_QUANTITY: Cmax (µM)
One number for each entry, in µM.

Ask: Note down Cmax recorded for Fc1ccc2c(/C=C/c3nnn[nH]3)c[nH]c2c1 [LM10, reference compound]
Result: 688

* * *

Record set of pIC50 for target or system mouse TDO (mTDO) (Mus musculus, UniProt P48776).
Give bare numbers, as −log10 of the molar value.

• Fc1ccc2c(/C=C/c3nnn[nH]3)c[nH]c2c1 [LM10, reference compound] = 5.97

Now turn to the next compound.
Ask: Note down pIC50 recorded for C[C@@H](CO)NC(=O)c1ccc(-c2c[nH]c3cc(F)ccc23)cc1
Result: 6.07

* * *

- SYSTEM_NAME: CYP1A2 (Homo sapiens, UniProt P05177)
- Sequence (P05177 1-516): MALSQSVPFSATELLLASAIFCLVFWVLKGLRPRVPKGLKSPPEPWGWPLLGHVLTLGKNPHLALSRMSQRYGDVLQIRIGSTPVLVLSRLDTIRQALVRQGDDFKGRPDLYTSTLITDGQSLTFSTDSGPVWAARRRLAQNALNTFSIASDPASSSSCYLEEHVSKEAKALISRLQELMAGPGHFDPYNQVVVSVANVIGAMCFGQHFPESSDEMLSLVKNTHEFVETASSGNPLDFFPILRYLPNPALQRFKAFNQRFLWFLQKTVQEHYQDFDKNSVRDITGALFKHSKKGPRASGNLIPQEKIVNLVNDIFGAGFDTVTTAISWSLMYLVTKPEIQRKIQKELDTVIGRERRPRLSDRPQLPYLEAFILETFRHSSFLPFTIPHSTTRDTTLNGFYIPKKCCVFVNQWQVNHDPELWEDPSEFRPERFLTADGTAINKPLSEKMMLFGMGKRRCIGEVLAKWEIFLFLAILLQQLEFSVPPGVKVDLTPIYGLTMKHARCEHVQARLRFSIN
pIC50: −log10 of the molar value.
MEASURED_QUANTITY: pIC50

Ask: Note down pIC50 recorded for C[C@@H](CO)NC(=O)c1ccc(-c2c[nH]c3cc(F)ccc23)cc1
Result: < 4.50

* * *

- ASSAY_METHOD_TEXT: In vivo pharmacokinetics and brain penetration
- PARTICULARS: male, C57BL/6NCrl, mouse, in vivo, po, 100 mg, AUCplasma, mice; 5‐day p.o.; 100 mg∙kg^−1
MEASURED_QUANTITY: AUC

Ask: Note down AUC recorded for C[C@@H](CO)NC(=O)c1ccc(-c2c[nH]c3cc(F)ccc23)cc1 [NTRC 3531‐0]
Result: 210 µM·h

* * *

- SYSTEM_NAME: human MDR1 P-glycoprotein (ABCB1) (Homo sapiens)
- Construct: host or cells: MDCK (canine kidney)
- ASSAY_METHOD_TEXT: Bi‐directional transport assay, MDCK‐MDR1 monolayer
- Assay type: in vitro ADME
- PARTICULARS: dog; MDCK‐MDR1; Elacridar −
MEASURED_QUANTITY: efflux ratio
Give bare numbers.

Ask: Note down efflux ratio recorded for C[C@@H](CO)NC(=O)c1ccc(-c2c[nH]c3cc(F)ccc23)cc1
Result: 3.32

* * *

- SYSTEM_NAME: recombinant human TDO (hTDO) (Homo sapiens, UniProt P48775)
- Sequence (P48775 whole entry): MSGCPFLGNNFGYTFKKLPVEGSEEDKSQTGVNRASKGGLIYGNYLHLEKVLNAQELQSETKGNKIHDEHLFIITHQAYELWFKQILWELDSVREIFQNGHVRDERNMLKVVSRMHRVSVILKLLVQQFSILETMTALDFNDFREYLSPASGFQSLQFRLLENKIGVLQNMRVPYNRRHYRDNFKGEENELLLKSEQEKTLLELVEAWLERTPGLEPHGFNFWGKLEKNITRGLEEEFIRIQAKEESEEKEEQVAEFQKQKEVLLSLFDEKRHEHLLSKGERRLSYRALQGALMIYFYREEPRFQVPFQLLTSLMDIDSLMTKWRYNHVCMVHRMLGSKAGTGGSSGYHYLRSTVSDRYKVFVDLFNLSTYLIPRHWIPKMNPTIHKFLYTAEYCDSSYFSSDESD
- ASSAY_METHOD_TEXT: biochemical
MEASURED_QUANTITY: pIC50
Give bare numbers, as −log10 of the molar value.

Ask: Note down pIC50 recorded for C[C@@H](CO)NC(=O)c1ccc(-c2c[nH]c3cc(F)ccc23)cc1 [NTRC 3531‐0]
Result: 6.31

* * *

- ASSAY_METHOD_TEXT: In vivo pharmacokinetics and brain penetration
- PARTICULARS: male, C57BL/6NCrl, mouse, in vivo, po, 100 mg
MEASURED_QUANTITY: Kp at 5 days
Answers are plain numbers.

Ask: Note down Kp at 5 days recorded for C[C@@H](CO)NC(=O)c1ccc(-c2c[nH]c3cc(F)ccc23)cc1
Result: 0.37

* * *

- ASSAY_METHOD_TEXT: In vivo pharmacokinetics and brain penetration
- PARTICULARS: male, C57BL/6NCrl, mouse, in vivo, po, 50 mg, AUCplasma, mice; 5‐day p.o.; 50 mg∙kg^−1
MEASURED_QUANTITY: AUC (µM·h)
Answers are plain numbers, in µM·h.

Ask: Note down AUC recorded for Fc1ccc2c(/C=C/c3nnn[nH]3)c[nH]c2c1 [LM10, reference compound]
Result: 2360

* * *

- SYSTEM_NAME: human MDR1 P-glycoprotein (ABCB1) (Homo sapiens, UniProt P08183)
- Construct: host or cells: MDCK (canine kidney)
- Sequence (P08183 whole entry): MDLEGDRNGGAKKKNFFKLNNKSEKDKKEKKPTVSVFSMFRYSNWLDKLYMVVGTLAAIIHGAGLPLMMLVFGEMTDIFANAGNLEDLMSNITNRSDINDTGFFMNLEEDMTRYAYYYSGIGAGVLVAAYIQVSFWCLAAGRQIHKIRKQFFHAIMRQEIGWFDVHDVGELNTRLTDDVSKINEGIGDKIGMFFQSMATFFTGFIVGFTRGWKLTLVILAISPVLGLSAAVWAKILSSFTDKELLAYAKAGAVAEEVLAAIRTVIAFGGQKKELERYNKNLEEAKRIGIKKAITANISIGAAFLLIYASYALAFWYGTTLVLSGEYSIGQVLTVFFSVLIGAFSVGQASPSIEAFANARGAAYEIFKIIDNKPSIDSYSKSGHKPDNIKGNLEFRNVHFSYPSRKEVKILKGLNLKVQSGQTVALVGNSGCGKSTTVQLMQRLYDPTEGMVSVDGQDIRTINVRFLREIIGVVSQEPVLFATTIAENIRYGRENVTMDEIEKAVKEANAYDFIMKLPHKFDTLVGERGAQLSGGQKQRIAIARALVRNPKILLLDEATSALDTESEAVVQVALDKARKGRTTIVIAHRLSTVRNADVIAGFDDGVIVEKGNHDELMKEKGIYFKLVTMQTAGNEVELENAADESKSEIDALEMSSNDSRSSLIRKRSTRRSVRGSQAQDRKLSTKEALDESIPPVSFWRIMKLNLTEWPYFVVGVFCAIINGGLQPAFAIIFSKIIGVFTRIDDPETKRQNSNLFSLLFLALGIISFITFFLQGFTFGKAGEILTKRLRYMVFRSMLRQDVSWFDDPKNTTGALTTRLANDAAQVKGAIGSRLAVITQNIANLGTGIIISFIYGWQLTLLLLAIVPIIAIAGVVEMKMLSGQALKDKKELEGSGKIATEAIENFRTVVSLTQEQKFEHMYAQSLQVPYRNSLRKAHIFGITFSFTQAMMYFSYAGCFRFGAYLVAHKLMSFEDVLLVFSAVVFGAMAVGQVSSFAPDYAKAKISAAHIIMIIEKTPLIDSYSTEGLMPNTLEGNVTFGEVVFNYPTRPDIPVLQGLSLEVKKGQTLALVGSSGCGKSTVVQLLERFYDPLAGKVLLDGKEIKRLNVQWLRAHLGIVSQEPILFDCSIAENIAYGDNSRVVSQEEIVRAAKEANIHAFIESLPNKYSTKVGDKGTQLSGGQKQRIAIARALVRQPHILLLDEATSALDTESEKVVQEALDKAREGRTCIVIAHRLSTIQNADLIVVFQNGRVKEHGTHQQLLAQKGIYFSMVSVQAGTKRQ
- ASSAY_METHOD_TEXT: Bi‐directional transport assay, MDCK‐MDR1 monolayer
- Type: in vitro ADME
- PARTICULARS: dog; MDCK‐MDR1; Elacridar −
MEASURED_QUANTITY: Papp A→B

- C[C@@H](CO)NC(=O)c1ccc(-c2c[nH]c3cc(F)ccc23)cc1 [NTRC 3531‐0]: 15.7 ×10⁻⁶ cm/s

Ask: Note down Papp A→B recorded for Fc1ccc2c(/C=C/c3nnn[nH]3)c[nH]c2c1 [LM10, reference compound]
Result: 5.63 ×10⁻⁶ cm/s

* * *

- ASSAY_METHOD_TEXT: In vivo pharmacokinetics and brain penetration
- PARTICULARS: male, C57BL/6NCrl, mouse, in vivo, po, 50 mg, Kpuu (unbound brain‐to‐plasma partition coefficient), mice; 5‐day p.o.; 50 mg∙kg^−1
MEASURED_QUANTITY: Kp uu

Ask: Note down Kp uu recorded for Fc1ccc2c(/C=C/c3nnn[nH]3)c[nH]c2c1 [LM10, reference compound]
Result: 0.02

* * *

- ASSAY_METHOD_TEXT: In vivo pharmacokinetics and brain penetration
- PARTICULARS: male, C57BL/6NCrl, mouse, in vivo, po, 50 mg, Cmax, mice; 5‐day p.o.; 50 mg∙kg^−1; plasma
MEASURED_QUANTITY: Cmax (µM)
Answers are plain numbers, in µM.

Ask: Note down Cmax recorded for Fc1ccc2c(/C=C/c3nnn[nH]3)c[nH]c2c1 [LM10, reference compound]
Result: 391

* * *

- ASSAY_METHOD_TEXT: In vivo pharmacokinetics and brain penetration
- PARTICULARS: male, C57BL/6NCrl, mouse, in vivo, po, 100 mg, Cmax, mice; single p.o.; 100 mg∙kg^−1; plasma
MEASURED_QUANTITY: Cmax (µM)
One number for each entry, in µM.

Ask: Note down Cmax recorded for C[C@@H](CO)NC(=O)c1ccc(-c2c[nH]c3cc(F)ccc23)cc1
Result: 37.5

* * *

- ASSAY_METHOD_TEXT: In vivo pharmacokinetics and brain penetration
- PARTICULARS: male, C57BL/6NCrl, mouse, in vivo, po, 100 mg, Cmax, mice; 5‐day p.o.; 100 mg∙kg^−1; plasma
MEASURED_QUANTITY: Cmax (µM)
One number for each entry, in µM.

Ask: Note down Cmax recorded for C[C@@H](CO)NC(=O)c1ccc(-c2c[nH]c3cc(F)ccc23)cc1
Result: 33.2

* * *

- SYSTEM_NAME: GL‐261‐mTDO (Mus musculus, UniProt P48776)
- Sequence (P48776 whole entry): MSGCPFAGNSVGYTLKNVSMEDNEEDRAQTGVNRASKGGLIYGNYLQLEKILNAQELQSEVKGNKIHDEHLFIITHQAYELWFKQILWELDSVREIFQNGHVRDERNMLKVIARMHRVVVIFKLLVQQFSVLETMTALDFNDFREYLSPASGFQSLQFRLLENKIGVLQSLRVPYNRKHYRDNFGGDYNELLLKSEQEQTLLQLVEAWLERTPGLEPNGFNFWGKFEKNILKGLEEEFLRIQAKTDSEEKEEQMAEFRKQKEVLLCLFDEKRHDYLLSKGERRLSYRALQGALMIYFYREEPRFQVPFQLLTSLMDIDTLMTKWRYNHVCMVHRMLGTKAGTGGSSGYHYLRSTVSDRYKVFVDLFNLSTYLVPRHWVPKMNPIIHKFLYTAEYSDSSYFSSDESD
MEASURED_QUANTITY: pIC50
One number for each entry, as −log10 of the molar value.

Ask: Note down pIC50 recorded for C[C@@H](CO)NC(=O)c1ccc(-c2c[nH]c3cc(F)ccc23)cc1 [NTRC 3531‐0]
Result: 6.67

* * *

- ASSAY_METHOD_TEXT: In vivo pharmacokinetics and brain penetration
- PARTICULARS: male, C57BL/6NCrl, mouse, in vivo, po, 100 mg, t½, mice; single p.o.; 100 mg∙kg^−1
MEASURED_QUANTITY: half-life (h)
Numbers only, in h.

Ask: Note down half-life recorded for C[C@@H](CO)NC(=O)c1ccc(-c2c[nH]c3cc(F)ccc23)cc1
Result: 2.49

* * *

- ASSAY_METHOD_TEXT: In vivo pharmacokinetics and brain penetration
- PARTICULARS: male, C57BL/6NCrl, mouse, in vivo, po, 50 mg
MEASURED_QUANTITY: Kp at 5 days
One number for each entry.

Ask: Note down Kp at 5 days recorded for Fc1ccc2c(/C=C/c3nnn[nH]3)c[nH]c2c1 [LM10, reference compound]
Result: 0.01
